# System: Saccharomyces cerevisiae
# ASSAY_METHOD_TEXT: Antifungal activity against recombinant Saccharomyces cerevisiae Y2721 overexpressing CpErg11/CpCpr assessed as inhibition of fungal growth incubated for 48 hrs by CLSI based broth microdilution assay
# Format: functional
VALUE_TYPE: MIC (mg/L)
Write the number in mg/L without appending the unit.

* C[C@@H](OCc1ccn(Cc2ccc(Cl)cc2)n1)[C@](O)(Cn1cncn1)c1ccc(F)cc1F | 0.016
* CC[C@@H]([C@H](C)O)n1ncn(-c2ccc(N3CCN(c4ccc(OC[C@@H]5CO[C@@](Cn6cncn6)(c6ccc(F)cc6F)C5)cc4)CC3)cc2)c1=O | 0.25
* C[C@@H](c1ncncc1F)[C@](O)(Cn1cncn1)c1ccc(F)cc1F | 0.0313
* C[C@@H](c1nc(-c2ccc(C#N)cc2)cs1)[C@](O)(Cn1cncn1)c1ccc(F)cc1F | 0.008
* OC(Cn1cncn1)(Cn1cncn1)c1ccc(F)cc1F | 4
* C[C@@H](OCc1ccn(Cc2ccc(F)cc2)n1)[C@](O)(Cn1cncn1)c1ccc(F)cc1F | 0.0313

The value of MIC measured for the compound CC(=O)N1CCN(c2ccc(OCC3COC(Cn4ccnc4)(c4ccc(Cl)cc4Cl)O3)cc2)CC1 (configuration not stated) turned out to be 0.5

Every entry's value here was drawn from ChEMBL document CHEMBL5579851.
